# experimental-details: Selectivity index, ratio of IC50 for cytotoxicity against human HFF-3 cells to IC50 for cytotoxicity against human KB-3-1 cells
# Type: toxicity, cell-based
# condition-set: HFF-3 cells and KB-3-1 cells, read-out: Ratio IC50
Each item that follows carries a reported selectivity ratio.
measured-quantity: selectivity ratio

>>> print(df.to_string())
                                   molecule  measured_quantity  measured
0  CCCCCCCCCCCCCCCCCCOCC(CNCCCNCCCNCCCNCC)OCC (centres undefined)  selectivity ratio       3.1
1  CCCCCCCCCCCCCCOCC(CNCCCNCCCNCCCNCC(COCCCCCCCCCCCCCC)OCC)OCC.Cl.Cl.Cl.Cl (centres undefined)  selectivity ratio      19.4
2  CCCCCCCCCCOCC(CNCCCNCCCNCCCNCC(COCCCCCCCCCC)OCC)OCC.Cl.Cl.Cl.Cl (centres undefined)  selectivity ratio       1.5
3  CCCCCCCCCCCCCCCCCCOCC(CNCCCNCCCNCCCNCC(COCCCCCCCCCCCCCCCCCC)OCC)OCC (centres undefined)  selectivity ratio       3.6
